# System: Malme-3M
# experiment notes: NCI tumour cell line growth inhibition, 48 h
The source made the active and inactive calls. Cut-off read from the data, not from the text of the source: active = GI50 up to about 1.1 µM and inactive = higher.
measurement kind: GI50

Known results for compounds:
CC(=O)O[C@H]1CC[C@H]2[C@@H]3CCc4cc(O)c(I)cc4[C@H]3CC[C@]12C: 16.9 µM (inactive)
COc1ccc(C(=O)C(C(=O)CCC(=O)Nc2cccc(C(F)(F)F)c2)c2ccccc2)cc1 (stereo not given): > 100 µM (inactive)

[Q] Give its GI50 value. Item: `O=c1n(-c2ccccc2)c(=O)n2c(-c3ccccc3)c(-c3ccccc3)n12`
[A] > 100 µM (inactive)

[Q] Give its GI50 value. Item: `O=C(Nc1ccccc1)c1cccc([N+](=O)[O-])c1`
[A] > 100 µM (inactive)

[Q] Give its GI50 value. Item: `Cc1[nH]c2ncn3nc(C(Cl)(Cl)Cl)nc3c2c1Cc1ccccc1`
[A] > 100 µM (inactive)

----------
# Test system: ACHN
# experiment notes: NCI tumour cell line growth inhibition, 48 h
Activity calls are given as the source filed them. Rule as the data show it: active = GI50 up to about 1.1 µM and inactive = higher.
measurement kind: GI50

COc1ccc2ccnc(Cc3ccc(OCc4ccccc4)c(OC)c3)c2c1: 23.6 µM (inactive)
Cc1c(C)n(COCCO)c2ncnc(N)c12: > 100 µM (inactive)
c1ccc2c(NCCCCCCNc3cccc4ccccc34)cccc2c1: > 100 µM (inactive)

[Q] Give its GI50 value. Item: O=C(OCc1ccccc1)N1c2cc([N+](=O)[O-])ccc2C(=O)N2CCC[C@H]2C1O (stereo partly drawn)
[A] > 100 µM (inactive)

----------
Test system HCT-15, GI50 listed for each of the compounds.

O=c1[nH]nc(Nc2ccccc2)c2nnn(C3CCCCC3)c12: > 100 µM

As a next step, examine the compound that follows.
[Q] Give its GI50 value. Item: `C/C(=N\NC(=S)NC(C)(C)C)c1ccccn1`
[A] < 0.01 µM

----------
# Test system: SW-620
# experiment notes: NCI tumour cell line growth inhibition, 48 h
Calls of active or inactive are those of the source. Rule as the data show it: active = GI50 up to about 1.1 µM and inactive = higher.
Choose the fitting class; nothing outside active, inactive is accepted.

// below: answered molecules
CC1=C(C)CC(C#N)(C#N)C(C#N)(C#N)C1: inactive
COc1cc(C2C3=C(COC3=O)Oc3cc4c(cc32)OCO4)cc(OC)c1OC (centres undefined): active
Cc1cc(=O)oc2cc(O)ccc12: inactive

Alright, here's another molecule for you.
[Q] Could you check what this test reported for CC(N1CCOCC1)C(O)(c1ccccc1)c1ccccn1 (centres undefined) ?
[A] inactive

----------
# System: MOLT-4
# experiment notes: NCI tumour cell line growth inhibition, 48 h
The source made the active and inactive calls. Cut-off read from the data, not from the text of the source: active = GI50 up to about 1.1 µM and inactive = higher. Non-standard residues stand in square brackets, D forms with d. Residues, ends and D or L forms follow the SMILES beside them. ξ: configuration not given here. *: point of attachment. NMeF = CN[C@@H](Cc1ccccc1)C(=O)O; NMeV = CN[C@H](C(=O)O)C(C)C; ξNMeV = CNC(C(=O)O)C(C)C; Boc = CC(C)(C)OC(=O)*; OBn = c1ccc(CO*)cc1
The reader will find reported GI50 values listed item by item below.

Known results for molecules:
c1ccc(/N=c2\snc3scc(-c4ccccc4)n23)cc1: 29.3 µM (inactive)
CC(C)C(C(=O)N(C)[C@H](C(=O)N1CCC[C@H]1C(=O)N(C)[C@@H](Cc1ccccc1)C(=O)OCc1ccccc1)C(C)C)N(C)C(=O)[C@@H](NC(=O)OC(C)(C)C)C(C)C (stereo not given in full) (Boc-V[ξNMeV][NMeV]P[NMeF]-OBn): 5.37 µM (inactive)
CC(=O)N/C(=C\c1ccccc1/C=C(\NC(C)=O)c1nc2cc(C)c(C)cc2[nH]1)c1nc2cc(C)c(C)cc2[nH]1: 20.3 µM (inactive)
Nc1cccc(CCN2CCN(CCCc3ccccc3)CC2)c1: 30.5 µM (inactive)

As a next step, examine the molecule that follows.
[Q] Give its GI50 value. Item: `O=C(OCCN=c1c2ccccc2ccc2ccccc12)c1ccccc1`
[A] > 100 µM (inactive)
